# METHOD: compounds binding Alexa647 anti-His antibody – biochemical, small-molecule microarray, 635 nm fluorescence, artefact control for SMM control protein annotation, primary screen (AID 1128);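 further: score merges feature fluorescence with signal-to-noise for each printed compound spot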
# DETAILS: higher = more signal
// label = Condition met if composite z-score is not less than 1, otherwise Condition not met

Examples from the recorded data:
O=C1[C@H]2C=C(I)[C@H](C[C@@H]2OCCCCO)[C@@]12CO2 :: Condition not met
O=C1O[C@H](c2ccccc2)[C@H](c2ccccc2)N2[C@H]1[C@@H](C(=O)NC[C@H](O)c1ccccc1)[C@]1(C(=O)Nc3ccccc31)[C@H]2c1ccc(O)cc1 :: Condition not met
COC(=O)[C@H](Cc1ccccc1)N[C@H](/C=C/C1CC1)[C@@H](O)Cc1ccccc1 :: Condition not met

Given the entry COc1ccc(C(O)C2C=CC3C(=O)N(C)C(=O)C3N2N(c2ccccc2)c2ccccc2)c2ccccc12 (centres undefined) , answer whether its composite z-score meets or surpasses 1. Condition met

Given the entry O=C1O[C@@H](c2ccccc2)[C@@H](c2ccccc2)N2[C@@H](c3ccccc3OCCO)[C@]3(C(=O)Nc4ccc(C#CC5(O)CCCCCC5)cc43)[C@@H](C(=O)N3CCN(c4ncccn4)CC3)[C@H]12 , answer whether its composite z-score meets or surpasses 1. Condition met

Given the entry [N-]=[N+]=NCc1ccccc1[C@@H]1OC(c2ccc(OCCCO)cc2)=N[C@]1(CCS(=O)(=O)c1ccccc1)C(=O)N1CCCCC1 , answer whether its composite z-score meets or surpasses 1. Condition not met

Given the entry COc1ccc(NN2C(C(O)c3ccc(N(C)C)cc3)C=CC3C(=O)N(C4CCCCC4)C(=O)C32)cc1 (centres undefined) , answer whether its composite z-score meets or surpasses 1. Condition met

Given the entry C#CCN(C/C=C/c1ccccc1)[C@H](CO)c1ccccc1 , answer whether its composite z-score meets or surpasses 1. Condition not met

Given the entry C[N+](C)(C)CCCCCCNC(=O)[C@H]1C[C@H]2C(=O)N[C@@H](Cc3ccccc3)C(=O)N2[C@H]1c1cccc(OCCO)c1 , answer whether its composite z-score meets or surpasses 1. Condition not met

Given the entry OB1C=CCC(CCc2ccccc2)O1 (centres undefined) , answer whether its composite z-score meets or surpasses 1. Condition not met

Given the entry COCCOC(=O)N1C(=O)[C@@]2(c3ccccc31)[C@H](C(=O)N1CCc3cc(OC)c(OC)cc3C1)[C@H]1C(=O)O[C@H](c3ccccc3)[C@H](c3ccccc3)N1[C@@H]2c1ccc(O)cc1 , answer whether its composite z-score meets or surpasses 1. Condition met

Given the entry C=C(CCCC)/C(=C/C[C@H](OC(C)=O)c1ccc(OCCO)cc1)c1cnc2ccccc2c1 , answer whether its composite z-score meets or surpasses 1. Condition not met

Given the entry CCOC(=O)C[C@H]1[C@H](OC(=O)c2ccc(-c3ccccc3)cc2)[C@@H](NC(=O)c2ccccc2)c2cc(OCCCO)ccc2N1C(=O)c1ccc2ccccc2n1 , answer whether its composite z-score meets or surpasses 1. Condition not met

Given the entry CCCC(=O)N(CCc1c[nH]c2ccccc12)[C@@H]1CC(C(=O)NCCO)=C[C@H](Oc2c(I)cc(CO)cc2OC)[C@H]1O , answer whether its composite z-score meets or surpasses 1. Condition not met

Given the entry CO[C@H]1O[C@H](CO)[C@@H](OC(=O)Nc2ccc(Oc3ccccc3)cc2)[C@H](OC(=O)Nc2ccc3c(c2)OCO3)[C@@H]1OC(=O)Nc1ccc2c(c1)OCO2 , answer whether its composite z-score meets or surpasses 1. Condition met
